- TEST DESCRIPTION: Cmax in overnight-fasted Wistar rat at 0.5 mg/kg, po measured upto 7 hrs by quadrupole mass spectrometry coupled UFLC analysis
- Assay type: ADME, organism-based
- Set-up: route oral, dose 0.5 mg/kg, time <=7
- CONDITION: in vivo
MEASUREMENT NAME: Cmax (ng/mL)
Write the value in ng/mL as a bare number.

So what's the measured Cmax for this one? COc1cccc2[nH]c(C(=O)N[C@@H](CC(C)C)C(=O)N[C@@H](C[C@@H]3CCNC3=O)C(=O)c3nc4ccccc4s3)cc12
1.08

* * *

- TEST DESCRIPTION: Volume of distribution in overnight-fasted Wistar rat at 0.1 mg/kg, iv measured upto 7 hrs by quadrupole mass spectrometry coupled UFLC analysis
- Type: ADME, organism-based
- CONDITION: in vivo
MEASUREMENT NAME: Vd (L/kg)
Write the value in L/kg as a bare number.

So what's the measured Vd for this one? COc1cccc2[nH]c(C(=O)N[C@@H](CC(C)C)C(=O)N[C@@H](C[C@@H]3CCNC3=O)C(=O)c3nc4ccccc4s3)cc12
3.51

* * *

- TEST DESCRIPTION: Apparent permeability in human Caco-2 monolayer cells at 1 uM and measured upto 120 mins by LC-MS/MS analysis
- Format: ADME, cell-based
MEASUREMENT NAME: Papp at 2 h, 1 µM (×10⁻⁶ cm/s)
Write the value in ×10⁻⁶ cm/s as a bare number.

So what's the measured Papp at 2 h, 1 µM for this one? COc1cccc2[nH]c(C(=O)N[C@@H](CC(C)C)C(=O)N[C@@H](C[C@@H]3CCNC3=O)C(=O)c3nc4ccccc4s3)cc12
18.9

* * *

- TEST DESCRIPTION: AUC (0 to infinity) in overnight-fasted Wistar rat at 0.5 mg/kg, po measured upto 7 hrs by quadrupole mass spectrometry coupled UFLC analysis
- Type: ADME, organism-based
- Design: route oral, dose 0.5 mg/kg, time <=7
- CONDITION: in vivo
MEASUREMENT NAME: AUC(0-inf) (ng·h/mL)
Write the value in ng·h/mL as a bare number.

So what's the measured AUC(0-inf) for this one? COc1cccc2[nH]c(C(=O)N[C@@H](CC(C)C)C(=O)N[C@@H](C[C@@H]3CCNC3=O)C(=O)c3nc4ccccc4s3)cc12
3.49

* * *

- TEST DESCRIPTION: AUC (0 to 7 hrs) in overnight-fasted Wistar rat at 0.5 mg/kg, po measured upto 7 hrs by quadrupole mass spectrometry coupled UFLC analysis
- Type: ADME, organism-based
- Set-up: route oral, dose 0.5 mg/kg, time <=7
- CONDITION: in vivo
MEASUREMENT NAME: AUC(0-t) (ng·h/mL)
Write the value in ng·h/mL as a bare number.

So what's the measured AUC(0-t) for this one? COc1cccc2[nH]c(C(=O)N[C@@H](CC(C)C)C(=O)N[C@@H](C[C@@H]3CCNC3=O)C(=O)c3nc4ccccc4s3)cc12
1.59

* * *

- TEST DESCRIPTION: MRT (total) in overnight-fasted Wistar rat at 0.5 mg/kg, po measured upto 7 hrs by quadrupole mass spectrometry coupled UFLC analysis
- Format: ADME, organism-based
- CONDITION: in vivo
MEASUREMENT NAME: MRT
Note to self: number, then unit, no commentary.

So what's the measured MRT for this one? COc1cccc2[nH]c(C(=O)N[C@@H](CC(C)C)C(=O)N[C@@H](C[C@@H]3CCNC3=O)C(=O)c3nc4ccccc4s3)cc12
13.2 h
